# tested.target: furin, P09958;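 also: purified furin at 1:10 enzyme:substrate in 50 mM HEPES pH 7.5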
# Sequence (P09958 whole entry): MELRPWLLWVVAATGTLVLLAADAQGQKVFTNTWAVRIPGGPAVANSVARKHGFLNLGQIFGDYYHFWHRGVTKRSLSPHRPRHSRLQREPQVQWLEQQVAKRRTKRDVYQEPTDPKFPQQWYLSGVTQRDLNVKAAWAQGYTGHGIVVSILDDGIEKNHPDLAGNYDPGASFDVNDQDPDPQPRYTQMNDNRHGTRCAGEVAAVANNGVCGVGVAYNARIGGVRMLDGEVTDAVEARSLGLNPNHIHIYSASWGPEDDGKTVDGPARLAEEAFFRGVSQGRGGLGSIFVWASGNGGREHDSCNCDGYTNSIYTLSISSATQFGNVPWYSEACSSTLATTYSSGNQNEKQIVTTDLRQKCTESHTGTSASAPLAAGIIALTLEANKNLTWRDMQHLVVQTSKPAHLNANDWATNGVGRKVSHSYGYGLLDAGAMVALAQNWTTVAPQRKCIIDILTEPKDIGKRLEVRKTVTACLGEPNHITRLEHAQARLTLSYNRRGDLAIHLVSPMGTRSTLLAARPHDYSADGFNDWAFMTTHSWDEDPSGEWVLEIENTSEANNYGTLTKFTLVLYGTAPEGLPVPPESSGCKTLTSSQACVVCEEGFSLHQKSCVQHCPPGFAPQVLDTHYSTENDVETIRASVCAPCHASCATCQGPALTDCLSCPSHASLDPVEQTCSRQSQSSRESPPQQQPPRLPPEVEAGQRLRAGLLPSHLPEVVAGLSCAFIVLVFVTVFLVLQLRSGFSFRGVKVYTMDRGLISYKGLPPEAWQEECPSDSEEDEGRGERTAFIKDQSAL
# assay.remarks: furin cleavage Z-score vs untreated control; higher = more cleavage, active = 3.5 or more, inactive = 1 or less, 8 variable residues between constant flanks
# assay.setup: 15 min
This is one part of the list. The hit rate among all sequences tested is not known here.
Heads up, the class ranges for furin cleavage Z-score are bucket A (below -0.7), bucket B (-0.7 to below 0.9), bucket C (0.9 or more)

# item.sequence, class.assignment
measured = [
    ("CADKNQVEGEAGNASASA [HC686]", "bucket A"),
    ("CASVAATLGFAGNASASA [HC789]", "bucket B"),
    ("CAMEECSQMLAGNASASA [HC1746]", "bucket A"),
    ("CADGMEECSQAGNASASA [HC1816]", "bucket C"),
    ("CANAEDVVCCAGNASASA [HC1367]", "bucket A"),
    ("CARNKKQNSQAGNASASA [FS-2282]", "bucket B"),
    ("CAGIVPAKSVAGNASASA [HC408]", "bucket B"),
    ("CARNKRSHSGAGNASASA [FS-1758]", "bucket C"),
    ("CARNKRSTQIAGNASASA [FS-1911]", "bucket C"),
    ("CATWGADTAAAGNASASA [HC653]", "bucket B"),
    ("CARRVRSRTHAGNASASA [FS-3071]", "bucket B"),
    ("CARNKKSKMDAGNASASA [FS-2497]", "bucket B"),
    ("CAEVVTSTMVAGNASASA [HC2226]", "bucket B"),
    ("CARNKRSKSNAGNASASA [FS-2729]", "bucket C"),
    ("CATWVLVGGVAGNASASA [HC990]", "bucket A"),
    ("CAREKREKIKAGNASASA [FS-2208]", "bucket B"),
    ("CARASRDVAQAGNASASA [FS-1686]", "bucket C"),
    ("CAMMNWSPTTAGNASASA [HC322]", "bucket B"),
    ("CARNKRDTMVAGNASASA [FS-1862]", "bucket C"),
    ("CATTPMSGSWAGNASASA [HC48]", "bucket A"),
    ("CALWGRTRRLAGNASASA [FS-60]", "bucket C"),
]
